pIC50 values by entry
- Target desc: AuroraB (Homo sapiens)
- Construct: 20 µL of AuroraB FL His; His
- Assay overview: AuroraB Homogeneous Time Resolved Fluorescent (HTRF) kinase assay
- Assay type: biochemical
- Measurement conditions: average; given as class symbols; read-out: AurB_ _IC50_IP (Avg)
pIC50: −log10 of the molar value.

See these solved cases before continuing.
Molecule | pIC50
Nc1nccc(-c2cccnc2Oc2ccc(Nc3nnc(-c4cccc(OC(F)(F)F)c4)c4ccccc34)cn2)n1 [compound 378] | ≥ 7.00
CN(C)Cc1ccc(-c2nnc(Nc3ccc(Oc4ncccc4-c4ccnc(N)n4)cc3)c3ccccc23)cc1 [compound 336] | 6.30 to 7.00
COc1cccc(-c2nnc(Nc3ccc(Oc4ncccc4-c4ccnc(N)n4)nc3)c3ccccc23)n1 [compound 293] | ≥ 7.00
Cc1cc(N2CCCCC2)nnc1Nc1ccc(Oc2ncccc2-c2ccnc(N)n2)cc1 [compound 334] | ≥ 7.00
Nc1n[nH]cc1-c1cccnc1Oc1ccc(Nc2nnc(-c3cccc(CO)c3)c3ccccc23)cc1 [compound 305] | ≥ 7.00

Problem: Which measured pIC50 value corresponds to Cc1csc(-c2nnc(Nc3ccc(Oc4ncccc4-c4ccnc5c4CCN5)cc3)c3ccccc23)n1 [compound 288] ?
Result: 5.60 to 6.30

Problem: Which measured pIC50 value corresponds to CN1CCN(CCCNc2nccc(-c3cccnc3Oc3ccc(Nc4nnc(-c5ccccn5)c5ccccc45)cc3)n2)CC1 [compound 323] ?
Result: ≥ 7.00

---

- Target desc: AuroraB (Homo sapiens, UniProt Q96GD4)
- Construct: 20 µL of AuroraB FL His; His
- Sequence (Q96GD4 whole entry): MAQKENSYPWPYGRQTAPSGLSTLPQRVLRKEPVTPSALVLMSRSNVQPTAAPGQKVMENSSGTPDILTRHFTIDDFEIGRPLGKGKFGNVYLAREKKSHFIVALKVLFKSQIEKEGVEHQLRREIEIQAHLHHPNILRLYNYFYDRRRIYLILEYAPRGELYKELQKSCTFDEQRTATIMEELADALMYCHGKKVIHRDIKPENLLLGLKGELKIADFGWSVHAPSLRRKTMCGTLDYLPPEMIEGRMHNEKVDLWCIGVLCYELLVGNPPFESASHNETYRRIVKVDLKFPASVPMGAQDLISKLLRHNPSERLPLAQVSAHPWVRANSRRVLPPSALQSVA
- Assay overview: AuroraB Homogeneous Time Resolved Fluorescent (HTRF) kinase assay
- Type: biochemical
- Measurement conditions: read-out: average activity in the Aurora kinase B HTRF assay
Counter-ions that a name gives are not always drawn.
IC50 values by entry

See these solved cases before continuing.
Compound | Reported endpoint | Recorded result
O=P(O)(O)OCCCNc1nccc(-c2cccnc2Oc2ccc(Nc3nnc(-c4ccccc4)c4ccccc34)cc2)n1 [Example Method F, phosphate dihydrochloride] | IC50 | ≤ 100 nM
c1ccc(-c2nnc(Nc3cnc(Oc4ccccc4-c4ccncc4)nc3)c3ccccc23)cc1 [Example 468] | IC50 | ≤ 100 nM
NC(=O)c1n[nH]cc1-c1cccnc1Oc1ccc(Nc2nnc(-c3ccccc3)c3ccccc23)cc1 [Example 241] | IC50 | ≤ 1000 nM

Problem: Which measured IC50 value corresponds to COC(=O)c1cc(-c2ccccc2)nnc1Nc1ccc(Oc2ncccc2-c2ccnc(N)n2)cc1 [Example 470] ?
Result: ≤ 1000 nM

---

IC50 values by entry
- Target desc: AuroraA-TPX2 (Homo sapiens)
- Construct: 20 µL of AuroraA-TPX2 KD GST; GST
- Sequence (O14965 133-383 limits assumed): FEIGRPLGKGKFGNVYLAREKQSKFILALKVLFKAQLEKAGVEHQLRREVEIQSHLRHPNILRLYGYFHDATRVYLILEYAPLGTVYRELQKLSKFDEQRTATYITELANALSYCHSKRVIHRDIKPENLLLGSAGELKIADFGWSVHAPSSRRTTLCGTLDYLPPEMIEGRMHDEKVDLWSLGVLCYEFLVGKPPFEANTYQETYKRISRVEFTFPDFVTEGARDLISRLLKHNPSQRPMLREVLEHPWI
- Sequence (Q9ULW0 1-43 partner limits assumed): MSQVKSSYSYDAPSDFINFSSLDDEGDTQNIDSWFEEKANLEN
- Assay overview: AuroraA-TPX2 Homogeneous Time Resolved Fluorescent (HTRF) kinase assay
- Format: biochemical
- Measurement conditions: average; given as class symbols; read-out: AurA/TP X2_ IC50_IP (Avg)

Compound | Recorded result
Nc1nccc(-c2cccnc2Oc2ccc(Nc3nnc(-c4ccccc4CO)c4ccccc34)cc2)n1 | ≤ 100 nM
Nc1nccc(-c2cccnc2Oc2ccc(Nc3nnc(-c4ccccc4OP(=O)(O)O)c4ccccc34)cc2)n1 | 500 to 2500 nM
CC(C)(O)c1cccc(-c2nnc(Nc3ccc(Oc4ncccc4-c4ccnc(N)n4)cc3)c3ccccc23)c1 | ≤ 100 nM
c1ccc(-c2nnc(Nc3ccc(Oc4ncccc4-c4ccnc(NCC5CCNCC5)n4)cc3)c3ccccc23)cc1 | 500 to 2500 nM

Problem: Which measured IC50 value corresponds to Nc1nccc(-c2cccnc2Oc2ccc(Nc3nnc(C4CCCCC4)c4ccccc34)cn2)n1 ?
Result: ≤ 100 nM

Problem: Which measured IC50 value corresponds to CN1C[C@@H]2C[C@H]1CN2c1nnc(Nc2ccc(Oc3ncccc3-c3ccnc(N)n3)cc2)c2ccccc12 ?
Result: 500 to 2500 nM

Problem: Which measured IC50 value corresponds to CCc1cc(-c2ccccc2)nnc1Nc1ccc(Oc2ncccc2-c2ccnc(NCCCN3CCNCC3)n2)nc1 ?
Result: 100 to 500 nM
